Test system: HEK-293T
protocol: Multiplex assay against HEK293T
Format: toxicity, cell-based
measurementContext: human, 48 h, 1 µM, compound concentration 1 uM, replicate 1

>  <molecule>
Cc1c(-c2ccc(O)cc2)n(Cc2ccc(OCCN3CCCCCC3)cc2)c2ccc(O)cc12

>  <unitTag>
%

>  <Population Mitotic Cells (%)>
60

$$$$
>  <molecule>
CN1CCN(c2ccc(OC(F)(F)F)c(Nc3ncc4c(n3)-c3c(c(C(N)=O)nn3CCO)CC4)c2)CC1

>  <unitTag>
%

>  <Population Mitotic Cells (%)>
42

$$$$
>  <molecule>
c1cn2cc(-c3ccc4cn[nH]c4c3)nc(Nc3ccc(N4CCOCC4)cc3)c2n1

>  <unitTag>
%

>  <Population Mitotic Cells (%)>
56

$$$$
>  <molecule>
Cc1nc(-c2ccc(-c3ccc(C(=O)N4CCc5cc6c(cc54)C4(CCN(C)CC4)CO6)cc3)c(C)c2)no1

>  <unitTag>
%

>  <Population Mitotic Cells (%)>
23

$$$$
>  <molecule>
OC1(c2ccc(Cl)cc2)CCN(Cc2c[nH]c3ccccc23)CC1

>  <unitTag>
%

>  <Population Mitotic Cells (%)>
41

$$$$
>  <molecule>
O=C1NCN(c2ccccc2)C12CCN(CCCOc1ccc(F)cc1)CC2 [SPIRAMIDE]

>  <unitTag>
%

>  <Population Mitotic Cells (%)>
64

$$$$
>  <molecule>
CC(C)(O)CNc1ncc(-c2ccnc(Nc3ccnc(Cl)c3)n2)c(CC2CC2)n1

>  <unitTag>
%

>  <Population Mitotic Cells (%)>
59

$$$$
>  <molecule>
CN1CCN(CCOc2cc(OC3CCOCC3)c3c(Nc4c(Cl)ccc5c4OCO5)ncnc3c2)CC1

>  <unitTag>
%

>  <Population Mitotic Cells (%)>
48

$$$$
>  <molecule>
Cl.N#Cc1ccc2[nH]cc(CCCCN3CCN(c4ccc5oc(C(N)=O)cc5c4)CC3)c2c1 [VILAZODONE HYDROCHLORIDE]

>  <unitTag>
%

>  <Population Mitotic Cells (%)>
67

$$$$
>  <molecule>
COc1cc(-n2cnc3cc(-c4ccc(Cl)cc4)sc3c2=O)ccc1OCCN1CCCC1

>  <unitTag>
%

>  <Population Mitotic Cells (%)>
46

$$$$

###

Parameter Growth Rate: see the listing below.
Tested on: U2OS
protocol: Incucyte cell viability with U2OS; further: filed as whole numbers so only -1 and 0 and 1 occur
Assay type: toxicity, cell-based
measurementContext: human, 18 h, 10 µM, compound concentration 10 uM, replicate number 2, timepoint 18 hours

>  <molecule>
CN(C)[C@@H]1CCN(c2cc(-c3ccccc3)nc3ccnn23)C1 [(R)-ZINC-3573]

>  <Growth Rate>
1

$$$$
>  <molecule>
C=C1/C(=C\C=C2/CCC[C@]3(C)[C@@H]([C@H](C)/C=C/C=C/C(O)(CC)CC)CC[C@@H]23)C[C@@H](O)C[C@@H]1O [SEOCALCITOL]

>  <Growth Rate>
0

$$$$
>  <molecule>
O=C(c1ccc(F)cc1)N1CC(COc2ccc(Br)cc2)(C(=O)O)C1 [PF-04475866]

>  <Growth Rate>
1

$$$$
>  <molecule>
Cc1nc(C2CCN(C(=O)c3ccc(OC(F)(F)F)cc3N)CC2)c2ncc(N3CCN(C)CC3)cc2n1 [BAY-693]

>  <Growth Rate>
1

$$$$
>  <molecule>
CC(=O)Nc1c(C(C)=O)c(=O)n(C)c2nc(-c3ccc(Cl)cc3Cl)c(-c3ccc(Cl)cc3)cc12 [NAPHTHYRIDINONE]

>  <Growth Rate>
1

$$$$
>  <molecule>
CN(C)C(=O)/C(C#N)=C/c1ccc(-c2nc3cnc4[nH]ccc4c3n2C2CCCCC2)o1

>  <Growth Rate>
1

$$$$
>  <molecule>
Cc1cccc(-c2cnc3occ(-c4ccc(C(=O)O)c(C5CCCC5)c4)c3c2)c1

>  <Growth Rate>
1

$$$$
>  <molecule>
Cc1cc(Nc2nccc(C)n2)cc(-c2cnc([C@@]3(O)CC[C@H](C(=O)O)C(C)(C)C3)s2)c1 [MRL-SYKi]

>  <Growth Rate>
1

$$$$
>  <molecule>
Br.Br.N=C(N)SCCc1c[nH]cn1

>  <Growth Rate>
1

$$$$
>  <molecule>
CC(=O)C1=C(C)N(c2cccc(C(F)(F)F)c2)C(=O)N[C@H]1c1ccc(C#N)nc1 [BAY-677]

>  <Growth Rate>
0

$$$$
>  <molecule>
COc1ccc(CNC(=O)c2cc(-c3cncc(Cl)c3)cnc2-c2ccccn2)nc1OC [MK-1064]

>  <Growth Rate>
0

$$$$
>  <molecule>
CSc1ccc(C(=O)N[C@@H]2CCCC[C@@H]2NC(=O)CNC(=O)c2cc(C(F)(F)F)ccc2NC(=O)NC(C)C)cc1

>  <Growth Rate>
1

$$$$
>  <molecule>
Clc1cccc(-c2nnnn2Cc2cccnc2)c1Cl

>  <Growth Rate>
1

$$$$
>  <molecule>
CCCCN1CCC(COC(=O)c2cc(Cl)c(N)c3c2OCCO3)CC1.Cl

>  <Growth Rate>
0

$$$$
>  <molecule>
Cc1cccc([C@H](C)c2c[nH]cn2)c1C.Cl [DEXMEDETOMIDINE HYDROCHLORIDE]

>  <Growth Rate>
1

$$$$
>  <molecule>
CCn1cc(-c2cccc(C(F)(F)F)c2)c2sc(C(=N)NC3CCS(=O)(=O)CC3)cc2c1=O

>  <Growth Rate>
1

$$$$
>  <molecule>
CNC(=NCCSCc1csc(N=C(N)N)n1)NC#N [TIOTIDINE]

>  <Growth Rate>
1

$$$$
>  <molecule>
c1cn2cc(-c3ccc4cn[nH]c4c3)nc(Nc3ccc(N4CCOCC4)cc3)c2n1 [ENTOSPLETINIB]

>  <Growth Rate>
0

$$$$
>  <molecule>
COc1ccc(Oc2cc(NCCC(F)(F)F)c3ncc(-c4ccc(C(=O)NC5CC5)c(C)c4)n3n2)c(F)c1F [BAY-1217389]

>  <Growth Rate>
1

$$$$
>  <molecule>
COc1ccc2cc(OCC3(C(=O)O)CN(C(=O)c4ccc(F)cc4)C3)ccc2c1 [PF-04418948]

>  <Growth Rate>
0

$$$$
>  <molecule>
CC(C)S(=O)(=O)c1ccc2nccc(Nc3ccc4scnc4c3)c2c1

>  <Growth Rate>
1

$$$$
>  <molecule>
Cc1c(-c2ccc(O)cc2)n(Cc2ccc(OCCN3CCCCCC3)cc2)c2ccc(O)cc12 [BAZEDOXIFENE]

>  <Growth Rate>
1

$$$$
>  <molecule>
COc1ccc(C2(O)OC(=O)C(c3ccc4c(c3)OCO4)=C2Cc2cc(OC)c(OC)c(OC)c2)cc1 (centres undefined) [PD-156707]

>  <Growth Rate>
1

$$$$
>  <molecule>
CC(C)(O)CNc1ncc(-c2ccnc(Nc3ccnc(Cl)c3)n2)c(CC2CC2)n1

>  <Growth Rate>
1

$$$$
>  <molecule>
CCc1cc(C(C)=O)c(O)cc1OCCCCCC(C)(C)c1nn[nH]n1 [LY-255283]

>  <Growth Rate>
0

$$$$
>  <molecule>
C[C@@]1(Cc2ccc(C#N)cc2)C(=O)N(c2cc(Cl)cc(Cl)c2)c2ncc(C(=O)NC3(c4nc(C5CCC5)no4)CC3)n21 [BI 9446]

>  <Growth Rate>
0

$$$$
>  <molecule>
CN(C)C(=O)c1ccc(-c2cc(C(=O)N[C@@H]3CCc4ccccc43)no2)cc1O

>  <Growth Rate>
1

$$$$
>  <molecule>
CC1(C)CCC(C)(C)c2cc(C3(c4ccc(C(=O)O)cc4)OCCO3)ccc21

>  <Growth Rate>
0

$$$$
>  <molecule>
Cc1nc(-c2cn3c(n2)-c2ccc(-c4cnn(C(C)(C)C(N)=O)c4)cc2OCC3)n(C(C)C)n1 [TASELISIB]

>  <Growth Rate>
1

$$$$
